Hello, the source for this data is patent US20190284240A1, in case you need it.

Examples of binders with documented pIC50 follow.
- tested-target: T1, Grb2 SH2 domain (UniProt P62993 60-152, limits assumed)
- T1 construct: domain: SH2 domain
- T1 sequence (P62993 60-152 limits assumed): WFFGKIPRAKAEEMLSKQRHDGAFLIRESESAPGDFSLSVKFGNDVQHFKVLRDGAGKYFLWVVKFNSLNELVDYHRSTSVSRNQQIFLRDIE
- assay-comment: FP-based competition assay, unlabeled peptide against the FAM-labeled reporter ligand on the Grb2 SH2 domain
Square brackets hold non-standard residues; d marks the D form. pY = N[C@@H](Cc1ccc(OP(=O)(O)O)cc1)C(=O)O; 2Nal = N[C@@H](Cc1ccc2ccccc2c1)C(=O)O
Notebook: values listed as pIC50 are -log10 of the concentration (mol/L).

[
  {
    "binder": "cyclo(F[2Nal][dR][dP]PRR[pY]VN) (also called cyclo(pY-V-N-F-Φ-r-p-P-R-R); cyclo[F-Φ-r-p-P-R-R-pY-V-N)) [BH23]",
    "pIC50": 6.40
  }
]

# context switch: different binder, same pIC50
I am curious: what pIC50 value has been reported for cyclo(FA[dA][dP]PRR[pY]VN) (SMILES CC(C)[C@@H]1NC(=O)[C@H](Cc2ccc(OP(=O)(O)O)cc2)NC(=O)[C@H](CCCNC(=N)N)NC(=O)[C@H](CCCNC(=N)N)NC(=O)[C@@H]2CCCN2C(=O)[C@H]2CCCN2C(=O)[C@@H](C)NC(=O)[C@H](C)NC(=O)[C@H](Cc2ccccc2)NC(=O)[C@H](CC(N)=O)NC1=O, Control peptide: the Nal-arg of BH23 is replaced with Ala-ala; also called cyclo[F-A-a-p-P-R-R-pY-V-N); negative control peptide BH25) [BH25] ?
7.00
